Where do these numbers come from? They come from patent US20200239555A1.

# Tgt: T1, biotinylated native human ApoC3 (human, UniProt P02656 21-99, biotinylated (site not stated))
# T1 construct: also called biotinylated human ApoC3
# Assay overview: SPR, IgG1 over biotinylated ApoC3 on SA chip, pH 7.4
Measurement label: kon (M⁻¹ s⁻¹)
Unit M⁻¹ s⁻¹ implied. Number only.

Request: Need kon of mAb4 (antibody, IgG1, V domains shown, Produced as full length IgG1 (kappa) in ExpiCHO-S cells; also called humanized anti-ApoC3 antibody mAb4) VH: QLVESGGGLVQPGGSLRLSCAASGFTFGTYSMRWVRQAPGKGLEWVSSIHTEGGGTAYRDSVKGRFTISRDNAKNTLYLQMNSLRAEDTAIYYCVIAGYSDWGQGTLVTVSS VL: DIVMTQSPLSLPVTPGESASISCKTSQGLVHSDGKTYFYWFLQKPGQSPQQLIYQVSNRASGVPDRFSGSGSGTDFTLKISRVKAEDAGVYYCAHGTYYPHTFGQGTRLEIK , thanks.
Result: 243000

Request: Entry mAb18 (antibody, IgG1, V domains shown, Produced as full length IgG1 (kappa) in ExpiCHO-S cells; also called humanized anti-ApoC3 antibody mAb18) VH: QLVESGGGLVQPGGSLRLSCAASGFTFSTYSMRWVRQAPGKGLEWVSSIHTEAGGTAYRDSVKGRFTISRDNAKNTLYLQMNNLRAEDTAVYYCVIAGYSDWGQGTLVTVSS VL: DIVMTQSPLSLPVTPGEPASISCKTSQGLVHSGGKTYFYWFLQKPGQSPQQLIYQVSNRASGVPDRFTGSGSGTDFTLKISRVEAEDAGVYYCAHGTYYPHTFGQGTRLEIK please
Result: 628000
